tested on: DMS-114; assay: NCI tumour cell line growth inhibition, 48 h
The source made the active and inactive calls. Rule as the data show it: active = GI50 up to about 1.1 µM and inactive = higher.
Classes used: active, inactive

* CC(=O)OC1=C2CC3(C)OC(=O)CC(C)(C)C3=CC=C2C=C(C(C)C)C1=O (stereo not drawn) | active
* COc1cc(C(=O)O)cc2c1[nH]c1ccccc12 [MUKOEIC ACID] | inactive
* CC1=C[P+](Cc2ccccc2)(c2ccccc2)CC1 (stereo not drawn) | inactive

###

tested on: EKVX; assay: NCI tumour cell line growth inhibition, 48 h
Active and inactive are the calls of the source. Rule as the data show it: active = GI50 up to about 1.1 µM and inactive = higher. Peptide text beside a SMILES is read from it. * marks the point of attachment. Cbz = O=C(OCc1ccccc1)*
Possible outcomes: 1 for active, -1 for inactive

• COc1ccccc1/C=C/c1cnccn1 = -1
• CN(C)/N=N/c1ccc(C(N)=O)cc1 = -1
• CCOC(=O)c1ccc(Nc2c3c(nc4ccccc24)CCCC3)cc1 = -1
• CN(C)C(=O)C1CCC(=C2C(=O)OC(C)(C)OC2=O)N1C (stereo unspecified) = -1
• N[C@@H](CSCSC[C@H](N)C(=O)O)C(=O)O = -1
• C=CC1(CC/C(=C\[N+](=O)[O-])c2ccc(OC)c(OC)c2)OCC(C)(C)CO1 = -1
• CC1(C)O[C@@H](CBr)C[C@H](C[C@H]2C[C@@H](O)C[C@@H](CCOCc3ccccc3)O2)O1 = -1
• O=C(c1ccccc1)c1ccc2[nH]c(-c3c(Cl)c(Cl)c(Cl)c(Cl)c3C(=O)N/N=C/c3cccc(Oc4ccccc4)c3)nc2c1 = -1
• O=C(CCCN1CCC2(CC1)C(=O)NC(=O)N2c1ccccc1)c1ccc(F)cc1 = -1
• COc1ccc(C(C)NNC(=O)c2ccncc2)c(OC)c1 (stereo unspecified) = -1
• COc1ccc2c3c(n(Cc4ccccc4)c(=O)c2c1)-c1cc(OC)c(OC)cc1C3C (stereo unspecified) = -1
• CC(C)C1=C(Cc2ccccc2)C(=O)O/C1=C\c1ccc(O)c(Cl)c1 = -1
• COc1cc2c(cc1O)NC(=S)[C@@H]1CCCN1C2=O = -1
• CC1(C)[C@@H]2C[C@H]1C(Cc1ccccc1C[C@H]1c3cc(-c4ccccn4)ncc3[C@H]3C[C@@H]1C3(C)C)c1cc(-c3ccccn3)ncc12 (stereo partly specified) = 1
• C=CCCCN1CCCC(C)C1=S (stereo unspecified) = -1
• CN1C2CCC1CC(C)(O)C2 (stereo unspecified) = -1
• O=C(c1ccco1)N(Cc1ccco1)C(=S)Nc1ccccc1 = -1
• O=C1C2=C(CCCC2)Nc2cccc3ncn1c23 = -1
• O=C(O)CCC(NC(=O)OCc1ccccc1)C(=O)NC(Cc1c[nH]cn1)C(=O)O (stereo not drawn) (Cbz-Glu-His-OH; configuration not given here) = -1
• O=c1[nH]c(-c2ccccc2)nc2cc([N+](=O)[O-])c(/C(Cl)=C/c3ccccc3)cc12 = -1
• COc1ccc2oc(=N)c(C(N)=S)cc2c1 = -1
